- Organism: Homo sapiens
- Assay notes: Liver toxicity in human assessed as induction of drug-induced liver injury by measuring verified drug-induced liver injury concern status
Property: DILI_Concern

Worked set:
[
  {
    "Compound": "CN1CCCC(CN2c3ccccc3Sc3ccccc32)C1 (stereo not drawn) [MEPAZINE]",
    "DILI_Concern": "Most-Dili-Concern"
  },
  {
    "Compound": "CC(C(=O)O)c1ccc(N2CC=CC2)c(Cl)c1 (stereo not drawn) [PIRPROFEN]",
    "DILI_Concern": "Most-Dili-Concern"
  },
  {
    "Compound": "CN1C(CSCC(F)(F)F)Nc2cc(Cl)c(S(N)(=O)=O)cc2S1(=O)=O (stereo not drawn) [POLYTHIAZIDE]",
    "DILI_Concern": "Ambiguous-Dili-Concern"
  },
  {
    "Compound": "Nc1nc(F)nc2c1ncn2[C@@H]1O[C@H](COP(=O)(O)O)[C@@H](O)[C@@H]1O [FLUDARABINE PHOSPHATE]",
    "DILI_Concern": "No-Dili-Concern"
  },
  {
    "Compound": "CN(C)CCOc1ccc(/C(=C(/CCCl)c2ccccc2)c2ccccc2)cc1 [TOREMIFENE]",
    "DILI_Concern": "Ambiguous-Dili-Concern"
  },
  {
    "Compound": "CC(N)C(=O)OC(C)(C)Cc1ccc(Cl)cc1 (stereo not drawn) [ALAPROCLATE]",
    "DILI_Concern": "Most-Dili-Concern"
  },
  {
    "Compound": "CCCc1nn(C)c2c(=O)[nH]c(-c3cc(S(=O)(=O)N4CCN(C)CC4)ccc3OCC)nc12",
    "DILI_Concern": "Less-Dili-Concern"
  },
  {
    "Compound": "CN1CCN(C(=O)O[C@H]2c3nccnc3C(=O)N2c2ccc(Cl)cn2)CC1 [ESZOPICLONE]",
    "DILI_Concern": "Ambiguous-Dili-Concern"
  }
]

Input line: Using known records, supply DILI_Concern for O=C1Nc2ccccc2C1(c1ccc(O)cc1)c1ccc(O)cc1 [OXYPHENISATINE]
Output line: Most-Dili-Concern

Input line: Fill in DILI_Concern for record CC(O)C(=O)[O-].[Na+] (stereo not drawn) [SODIUM LACTATE]
Output line: No-Dili-Concern

Input line: Answer with reported DILI_Concern of CC(C(=O)O)c1cccc(Oc2ccccc2)c1 (stereo not drawn) [FENOPROFEN]
Output line: Most-Dili-Concern

Input line: Check the records and state DILI_Concern for CN[C@@H]1[C@H](O)[C@H](NC)[C@H]2O[C@@]3(O)C(=O)C[C@@H](C)O[C@H]3O[C@@H]2[C@H]1O [SPECTINOMYCIN]
Output line: Ambiguous-Dili-Concern

Input line: Item Cc1cc(C#N)cc(C)c1Oc1nc(Nc2ccc(C#N)cc2)nc(N)c1Br [ETRAVIRINE] : provide DILI_Concern
Output line: Most-Dili-Concern

Input line: In one line, give reported DILI_Concern of the entry C1CCC(C(CC2CCCCN2)C2CCCCC2)CC1 (stereo not drawn) [PERHEXILINE] .
Output line: Most-Dili-Concern

Input line: Return DILI_Concern (reported value) for this compound: Nc1ccn([C@@H]2CS[C@H](CO)O2)c(=O)n1 [LAMIVUDINE]
Output line: Less-Dili-Concern

Input line: Read off the recorded DILI_Concern for C=CCC1(C(C)CCC)C(=O)NC(=O)NC1=O (stereo not drawn) [SECOBARBITAL]
Output line: Ambiguous-Dili-Concern

Input line: Supply measured DILI_Concern of CO/N=C(\C(=O)N[C@@H]1C(=O)N2C(C(=O)O)=C(CSc3nc(=O)c(=O)[nH]n3C)CS[C@H]12)c1csc(N)n1 [CEFTRIAXONE] in your reply.
Output line: Less-Dili-Concern

Input line: Give DILI_Concern for the following compound: CC(=O)S[C@@H]1CC2=CC(=O)CC[C@]2(C)[C@H]2CC[C@@]3(C)[C@@H](CC[C@@]34CCC(=O)O4)[C@H]12 [SPIRONOLACTONE]
Output line: Less-Dili-Concern
